# measurement description: TLR3 IRF3 reporter activation blockers – cell-based, poly I:C stimulus, luciferase, 10K MLSCN set, primary screen (AID 602277)
# condition description: HEK293-TLR3 RL24 IRF3 luciferase reporter, at 10 µM
Activity calls are given as the source filed them.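 Rule for the calls: active = inhibition of the reporter signal at or above 50%; inactive = inhibition below 50%.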
Choose one outcome from this list and give only that: 1 = active, 0 = inactive

compound	assigned category
COCCNC(=O)Cn1nc(C(F)(F)F)c(Br)c1C	0
O=C(CN1C(=O)C2CC=C(Cl)CC2C1=O)Nc1ccc(C(=O)O)cc1 (stereo unspecified)	0
COc1cccc(OC)c1C(=O)N1CCOCC1	0
Cn1cnnc1SCC(=O)NCc1cccc(C(F)(F)F)c1	0

Now let's try a different one.
Per the assay record, what outcome was assigned to COc1ccc(OC)c(NC(=O)C2CCN(c3cc(-c4ccccc4)nc4ncnn34)CC2)c1 ?
0

###

fluorescence slope for assorted compounds
# measured target: Muscarinic acetylcholine receptor M4 (Homo sapiens) (UniProt P08173)
# Sequence (P08173 whole entry, looked up): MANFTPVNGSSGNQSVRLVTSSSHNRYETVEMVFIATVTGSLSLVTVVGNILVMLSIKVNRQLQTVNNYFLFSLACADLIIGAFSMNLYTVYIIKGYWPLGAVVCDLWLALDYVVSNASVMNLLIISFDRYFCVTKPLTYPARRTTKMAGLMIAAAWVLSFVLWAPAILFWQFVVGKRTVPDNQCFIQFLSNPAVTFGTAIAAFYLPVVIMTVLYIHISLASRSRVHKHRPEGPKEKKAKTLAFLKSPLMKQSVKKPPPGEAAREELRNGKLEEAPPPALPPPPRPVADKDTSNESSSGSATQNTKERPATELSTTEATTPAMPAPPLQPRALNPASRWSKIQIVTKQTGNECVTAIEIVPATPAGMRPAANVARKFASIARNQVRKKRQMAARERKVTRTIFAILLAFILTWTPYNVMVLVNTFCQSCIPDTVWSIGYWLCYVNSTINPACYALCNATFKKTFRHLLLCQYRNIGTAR
# measurement description: M4-linked GIRK flux change, two-sided – cell-based, HEK293 M4/GIRK, thallium flux, BTC-AM, M4 allosteric agonist project, primary screen (AID 625);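 note: thallium influx through GIRK channels coupled to M4 in HEK293 cells with BTC-AM dye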
# condition description: at 10 µM, actives lie on both sides
Give the value as a plain number.

Name the recorded fluorescence slope of the compound listed here: O=C(NCc1ccc(F)cc1)c1cc(-c2ccco2)on1
0.00521

Complete the entry with fluorescence slope for CCOC(=O)c1cccc(NC(=O)CSc2nnc(-c3ccoc3C)n2CCOC)c1
0.00584

Supply measured fluorescence slope of CCCN1C(=O)SC(CC(=O)Nc2ccc(Br)cc2)C1=O (stereo unspecified) in your reply.
0.00512

Look up and state reported fluorescence slope for CCN(C(=O)CN1CCN(c2ccccc2OC)CC1)c1c(N)n(Cc2ccccc2)c(=O)[nH]c1=O
0.00639

Fill in reported fluorescence slope for this entry: CCN1CCN(C(=O)c2ccc3c(=O)n(C4CCCC4)c(=S)[nH]c3c2)CC1
0.00572

Input CCn1c(SCC(N)=O)nc2c1c(=O)n(C)c(=O)n2C , output reported fluorescence slope.
0.00578

Report measured fluorescence slope; entry is O=C(CCn1c(=O)oc2ccccc21)NCCN1CCc2ccccc2C1
0.00577

Return fluorescence slope (reported value) for this compound: CCCc1nc2ccccc2c(=O)n1NC(=O)c1c(O)c2cccc3c2n(c1=O)CCC3
0.00863

Find the measured fluorescence slope of CCOC(=O)N1CCC(NC(=O)c2ccc(OC)c(CN3CC(=O)N4CCCC4C3=O)c2)CC1 (stereo unspecified) and report it.
0.00582

Supply reported fluorescence slope belonging to this compound: CC(=O)Nc1cccc(-c2nnc(-c3ccccc3)o2)c1
0.00721

Quote fluorescence slope reported for COc1ccc(CCNS(=O)(=O)c2ccc3c(c2)OCCO3)cc1 please.
0.00491

###

# measurement description: reduction of polyQ htt aggregates in cells – imaging, exon1htt(103Q)mCFP cells, high-content imaging, primary screen (AID 483);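 note: compound exposure lasted 3 days before fixation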
# condition description: exon1htt(103Q)mCFP cell line, aggregate imaging, at 2 µM; stronger effect = higher value
endpoint: inhibition of aggregation (%)
The reply should be a number in %, with the unit left off.

Known inhibition of aggregation results, listed for orientation:
compound	inhibition of aggregation [%]
CCc1c(C)nc(N)n2c(SCC(=O)N3CCCc4ccccc43)nnc12	-13.3
CCOC(=O)c1cnn(-c2ncnc3c2cnn3Cc2ccccc2)c1N	8.7
CCOCCn1cnc2sc(C(=O)NCC(=O)OCC)c(C)c2c1=O	-1.3
N#CCc1nc(CSc2nc3ccccc3s2)cs1	-7.5
NS(=O)(=O)c1cc2c(cc1C(F)(F)F)NCNS2(=O)=O	0

Read the entry CC1CCN(C(=O)c2ccc(C(=O)N3CCC(C)CC3)cc2)CC1 and write its reported inhibition of aggregation.
2.4

Query inhibition of aggregation for COC(=O)Nc1ccc(S(=O)(=O)N2CCN(c3ccc(F)cc3)CC2)cc1
12.1
